- Test system: human HTT mRNA, SNP rs362331 C allele, GM09197 fibroblasts
- test details: Screening of HD molecules in GM09197 fibroblasts, allele-specific HTT mRNA by RT-PCR, C allele
- Type: cell-based
- reported conditions: 48 hr, C allele, Emin = lowest % HTT observed within compound concentration 0.5 nM to 1000 nM
recorded endpoint: GM 09197 E min 48 Hr C Allele (%)

| smiles notation | result |
| --- | --- |
| CCS(=O)(=O)Nc1ccc(Oc2ccc(F)cc2F)c(-c2cn(C)c(=O)c3[nH]c(C(=O)Nc4ccc(OCCOCCOCCOCCOCCOCCOCCOCCOCCNC(=O)c5cc(NC(=O)c6nc(NC(=O)c7cc(NC(=O)[C@@H](N)CCNC(=O)c8nc(NC(=O)CCNC(=O)c9cc(NC(=O)c%10nccn%10C)cn9C)cn8C)cn7C)cn6C)cn5C)cc4)cc23)c1 | B (B is 90% to 80%) |
| CC(=O)N1c2ccc(-c3ccn(-c4ccc(OCCOCCOCCOCCOCCOCCOCCOCCOCCOCCOCCOCCOCCOCCOCCOCCNC(=O)CCNC(=O)c5nc(NC(=O)c6cc(NC(=O)CCNC(=O)c7nc(NC(=O)CCCNC(=O)c8cc(NC(=O)c9nc(NC(=O)CCNC(=O)c%10cc(NC(=O)c%11nccn%11C)cn%10C)cn9C)cn8C)cn7C)cn6C)cn5C)cc4)n3)cc2[C@H](Nc2ccc(C#N)cc2)C[C@@H]1C | B (B is 90% to 80%) |
